Target: T1, Human CD3eg linker (human)
T1 construct: single-chain construct; also called recombinant human CD3
T1 chain: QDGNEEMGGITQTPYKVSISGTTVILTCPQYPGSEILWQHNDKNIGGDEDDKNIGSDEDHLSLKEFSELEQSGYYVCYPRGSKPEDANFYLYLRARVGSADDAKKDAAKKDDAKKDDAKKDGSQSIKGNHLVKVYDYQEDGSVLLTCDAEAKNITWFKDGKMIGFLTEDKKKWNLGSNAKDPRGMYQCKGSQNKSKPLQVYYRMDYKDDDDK
Test: SPR, vs unmutated H183/L072
Param label: returns condition met when fold change of affinity < 1 fold, returns condition not met otherwise, including exact equality.

Example cases with answers are listed next.
BINDER | CLASS
dBBDu183H T100bG/dBBDu072L (antibody, name in Kabat numbering, V domains shown) VH: QVQLVESGGGLVQPGRSLRLSCAASGFTFSNAWMHWVRQAPGKGLEWVAQIKDKGNAYAAYYAPSVKGRFTISRDDSKNSIYLQMNSLKTEDTAVYYCHYVHYASASGVLPAFGVDAWGQGTTVTVSS VL: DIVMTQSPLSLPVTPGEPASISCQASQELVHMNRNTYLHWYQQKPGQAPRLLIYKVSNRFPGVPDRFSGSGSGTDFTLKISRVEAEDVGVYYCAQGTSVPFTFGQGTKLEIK | condition not met
dBBDu183H A100R/dBBDu072L (antibody, name in Kabat numbering, V domains shown) VH: QVQLVESGGGLVQPGRSLRLSCAASGFTFSNAWMHWVRQAPGKGLEWVAQIKDKGNAYAAYYAPSVKGRFTISRDDSKNSIYLQMNSLKTEDTAVYYCHYVHYASRSTVLPAFGVDAWGQGTTVTVSS VL: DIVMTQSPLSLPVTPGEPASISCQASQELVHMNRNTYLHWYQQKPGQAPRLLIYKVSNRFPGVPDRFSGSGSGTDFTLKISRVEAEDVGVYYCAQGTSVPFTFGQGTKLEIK | condition not met
dBBDu183H F100gQ/dBBDu072L (antibody, name in Kabat numbering, V domains shown) VH: QVQLVESGGGLVQPGRSLRLSCAASGFTFSNAWMHWVRQAPGKGLEWVAQIKDKGNAYAAYYAPSVKGRFTISRDDSKNSIYLQMNSLKTEDTAVYYCHYVHYASASTVLPAQGVDAWGQGTTVTVSS VL: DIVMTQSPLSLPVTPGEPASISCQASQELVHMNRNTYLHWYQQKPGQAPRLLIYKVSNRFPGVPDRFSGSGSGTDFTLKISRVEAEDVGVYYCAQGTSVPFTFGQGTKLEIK | condition not met
dBBDu183H G100hF/dBBDu072L (antibody, name in Kabat numbering, V domains shown) VH: QVQLVESGGGLVQPGRSLRLSCAASGFTFSNAWMHWVRQAPGKGLEWVAQIKDKGNAYAAYYAPSVKGRFTISRDDSKNSIYLQMNSLKTEDTAVYYCHYVHYASASTVLPAFFVDAWGQGTTVTVSS VL: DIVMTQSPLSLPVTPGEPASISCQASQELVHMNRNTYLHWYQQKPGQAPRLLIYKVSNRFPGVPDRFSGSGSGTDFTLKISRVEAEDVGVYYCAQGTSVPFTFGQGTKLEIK | condition met

Consider now this further binder.
Consider dBBDu183H A102N/dBBDu072L (antibody, name in Kabat numbering, V domains shown) VH: QVQLVESGGGLVQPGRSLRLSCAASGFTFSNAWMHWVRQAPGKGLEWVAQIKDKGNAYAAYYAPSVKGRFTISRDDSKNSIYLQMNSLKTEDTAVYYCHYVHYASASTVLPAFGVDNWGQGTTVTVSS VL: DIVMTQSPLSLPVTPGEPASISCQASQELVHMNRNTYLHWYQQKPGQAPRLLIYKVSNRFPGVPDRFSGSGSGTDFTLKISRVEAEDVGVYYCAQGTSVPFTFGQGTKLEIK . Does its fold change of affinity lie strictly below 1 fold?
condition not met
